experiment: Cmax in C57BL/6 mouse at 100 mg/kg; assay type: ADME, organism-based; design: dose 100 mg/kg; settings: in vivo
Readout Kind: Cmax (µM)
Express your answer in µM, writing the number without its unit.

Asked: // returns reported Cmax for input "CCn1c(-c2cnc(C)nc2)nc2c(N[C@H]3CCN(C(=O)C4CC4)C3)ncnc21"
Given back: 33

###

Each item that follows carries a reported log10 CL.
assay: Intrinsic clearance in Beagle dog at 0.05 mg/kg; assay type: ADME, organism-based, Canis lupus familiaris; details: in vivo
Please interpret these as log10 of CL where CL is in mL/min/kg.

| Molecule | Numeric Value |
| --- | --- |
| CCn1c(-c2cnc(C)nc2)nc2c(O[C@H]3CCN(C(=O)C4CCC4)C3)ncnc21 | 1.43 |

Asked: // returns reported log10 CL for input "CCn1c(-c2cnc(C)nc2)nc2c(O[C@H]3CCN(C(=O)N4CC(OC)C4)C3)ncnc21"
Given back: 1.51

Asked: // returns reported log10 CL for input "CCC(=O)N1CC[C@H](Oc2ncnc3c2nc(-c2cnc(C)nc2)n3CC)C1"
Given back: 1.04

Asked: // returns reported log10 CL for input "CCn1c(-c2cnc(C)nc2)nc2c(O[C@H]3CCN(C(=O)C4CCOCC4)C3)ncnc21"
Given back: 0.85

Asked: // returns reported log10 CL for input "CCn1c(-c2cnc(C)nc2)nc2c(O[C@H]3CCN(C(=O)C4CC(F)(F)C4)C3)ncnc21"
Given back: 2.23

Asked: // returns reported log10 CL for input "CCn1c(-c2ccc(C(F)(F)F)nc2)nc2c(N[C@H]3CCN(C(=O)C4CC4)C3)ncnc21"
Given back: 1.34

Asked: // returns reported log10 CL for input CCn1c(-c2cnc(C)nc2)nc2c(O[C@H]3CCN(C(=O)C4CCOC4)C3)ncnc21 (stereo partly drawn)
Given back: 0.62

Asked: // returns reported log10 CL for input "CCC(=O)N1CC[C@H](Nc2ncnc3c2nc(-c2cnc(C)nc2)n3CC)C1"
Given back: 0.95
